Assay: Solubility in sodium phosphate buffer at pH 7.4
Assay type: physicochemical
quantity: solubility

C[C@H](O)[C@H](NC(=O)[C@H](Cc1ccccc1)NC(=O)CCCCCNC(=O)NC1CCCCC1)C(=O)O > 500 µM
N=C(N)NCCC[C@H](NC(=O)CCCCCNC(=O)NC12CC3CC(CC(C3)C1)C2)C(=O)O > 500 µM
O=C(CCCCCNC(=O)NC1CCCCC1)N[C@@H](Cc1ccccc1)C(=O)N[C@@H](Cc1ccccc1)C(=O)O > 500 µM

Next:
Prompt: Write down solubility measured for item "O=C(CCCCCNC(=O)NC1CCCCC1)N[C@@H](Cc1ccccc1)C(=O)N1CCC[C@H]1C(=O)O"
Response: > 500 µM

* * *

Molecular target: Bifunctional epoxide hydrolase 2 (Mus musculus, UniProt P34914)
Sequence (P34914 whole entry): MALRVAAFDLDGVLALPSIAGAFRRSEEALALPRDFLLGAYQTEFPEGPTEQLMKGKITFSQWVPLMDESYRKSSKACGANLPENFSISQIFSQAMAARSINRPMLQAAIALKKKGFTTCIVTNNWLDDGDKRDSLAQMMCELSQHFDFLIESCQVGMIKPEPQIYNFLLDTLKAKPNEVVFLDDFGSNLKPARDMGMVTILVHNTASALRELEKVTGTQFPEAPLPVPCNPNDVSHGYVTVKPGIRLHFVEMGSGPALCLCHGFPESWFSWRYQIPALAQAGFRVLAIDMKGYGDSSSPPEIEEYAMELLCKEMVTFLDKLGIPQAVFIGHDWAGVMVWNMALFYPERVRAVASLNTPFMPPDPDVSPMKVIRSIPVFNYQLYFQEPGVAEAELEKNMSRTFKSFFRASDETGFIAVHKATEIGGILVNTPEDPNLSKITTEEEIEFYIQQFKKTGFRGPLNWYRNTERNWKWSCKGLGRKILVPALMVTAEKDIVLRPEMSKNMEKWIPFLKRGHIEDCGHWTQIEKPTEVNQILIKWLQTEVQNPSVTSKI
Experiment: Inhibition of mouse recombinant soluble Epoxide hydrolase
quantity: pIC50
Give bare numbers, as −log10 of the molar value.

Study these solved cases before continuing.
O=C(O)CCCNC(=O)NC1CCCCC1 5.72
O=C(O)CC[C@H](NC(=O)CCCNC(=O)NC1CCCCC1)C(=O)O 5.77

Prompt: Item "O=C(CCCNC(=O)NC12CC3CC(CC(C3)C1)C2)N[C@@H](Cc1cnc[nH]1)C(=O)O" : provide pIC50
Response: 7.30

* * *

Assay: Plasma concentration in dog at 0.3 mg/kg, po after 300 min
Type: ADME, organism-based, Canis lupus familiaris
Parameters: dose 0.3 mg/kg, route oral
quantity: concentration at 5 h (nM)
One number for each entry, in nM.

Prompt: Provide one value: measured concentration at 5 h of "O=C(O)CCCCCCCCCCCNC(=O)NC12CC3CC(CC(C3)C1)C2"
Response: 1.61

* * *

Biological target: Bifunctional epoxide hydrolase 2 (Homo sapiens, UniProt P34913)
Sequence (P34913 whole entry): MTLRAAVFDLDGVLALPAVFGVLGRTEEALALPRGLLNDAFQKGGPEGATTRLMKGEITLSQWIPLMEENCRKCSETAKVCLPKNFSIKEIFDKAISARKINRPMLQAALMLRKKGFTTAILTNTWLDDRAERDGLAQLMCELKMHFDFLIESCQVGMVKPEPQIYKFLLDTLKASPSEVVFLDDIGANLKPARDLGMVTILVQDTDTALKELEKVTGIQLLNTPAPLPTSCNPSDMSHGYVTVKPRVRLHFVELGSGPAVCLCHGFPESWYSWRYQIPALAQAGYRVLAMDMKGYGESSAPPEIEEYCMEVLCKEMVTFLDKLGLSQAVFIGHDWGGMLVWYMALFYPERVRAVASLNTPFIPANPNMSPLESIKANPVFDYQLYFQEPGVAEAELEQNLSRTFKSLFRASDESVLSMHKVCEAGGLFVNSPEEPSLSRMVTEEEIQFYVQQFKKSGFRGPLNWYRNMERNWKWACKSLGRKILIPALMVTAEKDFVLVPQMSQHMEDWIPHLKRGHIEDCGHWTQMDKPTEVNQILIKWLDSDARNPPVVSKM
Experiment: Inhibition of human recombinant soluble Epoxide hydrolase
Would you mind telling me the reported pIC50 of each entry?
Answers are plain numbers, as −log10 of the molar value.

CC(C)[C@H](NC(=O)CCCNC(=O)NC1CCCCC1)C(=O)O 4.77
O=C(CCCCCNC(=O)NC12CC3CC(CC(C3)C1)C2)N[C@@H](Cc1ccccc1)C(=O)O 5.57
O=C(CCCCCNC(=O)NC1CCCCC1)N[C@@H](Cc1ccccc1)C(=O)N[C@@H](Cc1c[nH]c2ccccc12)C(=O)O 7.00
O=C(CCCNC(=O)NC1CCCCC1)N[C@@H](Cc1cnc[nH]1)C(=O)O 4.52
O=C(O)CCCNC(=O)NC1CCCCC1 4.44
O=C(CCCNC(=O)NC1CCCCC1)N[C@@H](Cc1ccccc1)C(=O)O 4.68

Prompt: Report pIC50 for "COC(=O)CCCCCNC(=O)NC12CC3CC(CC(C3)C1)C2"
Response: 5.74

* * *

Assay: Solubility in sodium phosphate buffer at pH 7.4
Assay type: physicochemical
Record form. Attribute: solubility. Fill in for each entry.

compound	reported
O=C(CNC(=O)NC1CCCCC1)N[C@@H](Cc1ccccc1)C(=O)O	> 500 µM
O=C(O)CNC(=O)CCCNC(=O)NC12CC3CC(CC(C3)C1)C2	> 500 µM
CC(C)C[C@H](NC(=O)CCCCCNC(=O)NC12CC3CC(CC(C3)C1)C2)C(=O)O	> 500 µM
CC(O)[C@H](NC(=O)CCCCCNC(=O)NC12CC3CC(CC(C3)C1)C2)C(=O)O (some centres not stated)	> 500 µM
O=C(CCCCCNC(=O)NC12CC3CC(CC(C3)C1)C2)N[C@@H](CO)C(=O)O	> 500 µM

Okay, here is my list. What is solubility for each of these?
1. CC(C)C[C@H](NC(=O)CCCNC(=O)NC12CC3CC(CC(C3)C1)C2)C(=O)O
2. O=C(CCCCCNC(=O)NC12CC3CC(CC(C3)C1)C2)N[C@@H](Cc1ccc(O)cc1)C(=O)O
3. O=C(O)C[C@H](NC(=O)CCCNC(=O)NC12CC3CC(CC(C3)C1)C2)C(=O)O
4. O=C(CCCNC(=O)NC1CCCCC1)N[C@@H](Cc1ccccc1)C(=O)O
5. O=C(CCCNC(=O)NC12CC3CC(CC(C3)C1)C2)N[C@@H](Cc1c[nH]c2ccccc12)C(=O)O
6. O=C(O)CC[C@H](NC(=O)CCCCCNC(=O)NC12CC3CC(CC(C3)C1)C2)C(=O)O

Response:
1: > 500 µM; 2: > 500 µM; 3: > 500 µM; 4: > 500 µM; 5: > 500 µM; 6: > 500 µM

* * *

Molecular target: Bifunctional epoxide hydrolase 2 (Mus musculus, UniProt P34914)
Experiment: Inhibition of mouse recombinant soluble Epoxide hydrolase
Answer each item with its documented pIC50.
Answers are plain numbers, as −log10 of the molar value.

CC(C)[C@H](NC(=O)CCCNC(=O)NC1CCCCC1)C(=O)O 5.85
O=C(CNC(=O)NC1CCCCC1)N[C@@H](Cc1ccccc1)C(=O)O 4.74
O=C(CCCNC(=O)NC1CCCCC1)N[C@@H](Cc1cnc[nH]1)C(=O)O 7.30
O=C(CCCCCNC(=O)NC1CCCCC1)N[C@@H](Cc1cnc[nH]1)C(=O)O 7.22

Prompt: Provide one value: measured pIC50 of "CC(C)[C@H](NC(=O)CCCCCNC(=O)NC1CCCCC1)C(=O)O"
Response: 6.25

* * *

Experiment: Plasma concentration in dog at 0.3 mg/kg, po after 120 min
Assay type: ADME, organism-based, Canis lupus familiaris
Design: dose 0.3 mg/kg, route oral
quantity: concentration at 2 h (nM)
Answers are plain numbers, in nM.

Prompt: Dear colleague, please send me the reported concentration at 2 h for "O=C(O)CCCCCCCCCCCNC(=O)NC12CC3CC(CC(C3)C1)C2" when you can.
Response: 26.3

* * *

Exercise: state measured concentration at 0.5 h for each of the compounds provided.
Assay: Plasma concentration in dog at 0.3 mg/kg, po after 30 min
Format: ADME, organism-based, Canis lupus familiaris
Design: dose 0.3 mg/kg, route oral
Answers are plain numbers, in nM.

O=C(O)CCCCCCCCCCCNC(=O)NC12CC3CC(CC(C3)C1)C2 20.4

// below: concentration at 0.5 h requested for another compound
Prompt: Provide concentration at 0.5 h value for the following compound: "O=C(CCCCCNC(=O)NC12CC3CC(CC(C3)C1)C2)N[C@@H](Cc1ccccc1)C(=O)N[C@@H](Cc1c[nH]c2ccccc12)C(=O)O"
Response: 0.82

* * *

For each record, write down the corresponding IC50.
Target: Bifunctional epoxide hydrolase 2 (Homo sapiens)
Test: Inhibition of human recombinant soluble Epoxide hydrolase
Numbers only, in µM.

Before answering, review these 4 worked examples.
smilesStr	scaleUnit	IC50
CC[C@H](C)[C@H](NC(=O)[C@H](Cc1ccccc1)NC(=O)CCCCCNC(=O)NC1CCCCC1)C(=O)O	µM	0.13
O=C(CCCCCNC(=O)NC1CCCCC1)N[C@@H](Cc1ccccc1)C(=O)N[C@@H](Cc1cnc[nH]1)C(=O)O	µM	5.5
CC(C)[C@H](NC(=O)[C@H](Cc1ccccc1)NC(=O)CCCCCNC(=O)NC1CCCCC1)C(=O)O	µM	0.1
CC(C)C[C@H](NC(=O)[C@H](Cc1ccccc1)NC(=O)CCCCCNC(=O)NC1CCCCC1)C(=O)O	µM	0.88

Proceed to the following item.
Prompt: Give the value of IC50 reported for the following: "O=C(O)CC[C@H](NC(=O)CCCNC(=O)NC1CCCCC1)C(=O)O"
Response: 24

* * *

Molecular target: Bifunctional epoxide hydrolase 2 (Homo sapiens)
Assay: Inhibition of human recombinant soluble Epoxide hydrolase
Classify: class 1 when IC50 is strictly less than 3 µM; class 0 when IC50 is not.

compound	categoryLabel
O=C(O)C[C@H](NC(=O)[C@H](Cc1ccccc1)NC(=O)CCCCCNC(=O)NC1CCCCC1)C(=O)O	class 0
O=C(O)CNC(=O)NC1CCCCC1	class 0
O=C(O)C[C@H](NC(=O)CCCCCNC(=O)NC12CC3CC(CC(C3)C1)C2)C(=O)O	class 0
CC(C)[C@H](NC(=O)CCCCCNC(=O)NC1CCCCC1)C(=O)O	class 0
CC(C)[C@H](NC(=O)CCCCCNC(=O)NC12CC3CC(CC(C3)C1)C2)C(=O)O	class 0
O=C(CCCCCNC(=O)NC1CCCCC1)N[C@@H](Cc1ccccc1)C(=O)N[C@@H](Cc1ccc(O)cc1)C(=O)O	class 1
O=C(CCCCCNC(=O)NC1CCCCC1)N[C@@H](Cc1ccccc1)C(=O)O (stereo in doubt; form 2)	class 1
O=C(CCCCCNC(=O)NC1CCCCC1)N[C@@H](Cc1ccccc1)C(=O)O (stereo in doubt; form 1)	class 1

Prompt: Hello, I'm reviewing records and need to know if IC50 of "COC(=O)CCCCCNC(=O)NC1CCCCC1" is below 3 µM. Could you check?
Response: class 0

Prompt: Field: below-cutoff. Rule: recorded IC50 strictly less than 3 µM. Subject: "C[C@H](O)[C@H](NC(=O)[C@H](Cc1ccccc1)NC(=O)CCCCCNC(=O)NC1CCCCC1)C(=O)O"
Response: class 1

Prompt: Check if IC50 falls below 3 µM for "O=C(O)CC[C@H](NC(=O)[C@H](Cc1ccccc1)NC(=O)CCCCCNC(=O)NC1CCCCC1)C(=O)O" .
Response: class 0

Prompt: Quick check: does "O=C(CCCCCNC(=O)NC12CC3CC(CC(C3)C1)C2)N[C@@H](Cc1c[nH]c2ccccc12)C(=O)O" have IC50 under 3 µM?
Response: class 0

Prompt: is_below(IC50, 3 µM) for "O=C(CCCCCNC(=O)NC1CCCCC1)N[C@@H](Cc1ccccc1)C(=O)N[C@@H](CO)C(=O)O" ?
Response: class 1

Prompt: is_below(IC50, 3 µM) for "N=C(N)NCCC[C@H](NC(=O)[C@H](Cc1ccccc1)NC(=O)CCCCCNC(=O)NC1CCCCC1)C(=O)O" ?
Response: class 1

Prompt: Criterion: IC50 strictly below 3 µM. Is it met by "CC(C)C[C@H](NC(=O)CCCCCNC(=O)NC12CC3CC(CC(C3)C1)C2)C(=O)O" ?
Response: class 0

Prompt: # check: IC50 < 3 µM for "O=C(CCCCCNC(=O)NC12CC3CC(CC(C3)C1)C2)N[C@@H](Cc1cnc[nH]1)C(=O)O"
Response: class 0

Prompt: Strictly below 3 µM: is that where IC50 of "O=C(CNC(=O)NC1CCCCC1)N[C@@H](Cc1ccccc1)C(=O)O" sits?
Response: class 0

Prompt: Check if IC50 falls below 3 µM for "CSCC[C@H](NC(=O)[C@H](Cc1ccccc1)NC(=O)CCCCCNC(=O)NC1CCCCC1)C(=O)O" .
Response: class 1

Prompt: Here's an entry: "O=C(O)CCCCCNC(=O)NC1CCCCC1" . Is its IC50 below 3 µM?
Response: class 0

Hey, just so you know, these numbers are from ChEMBL document CHEMBL1137287.
